# pIC50 listing for each entry below
Target: human TRH-DE (Homo sapiens, UniProt Q9UKU6)
Construct: expressed in transfected cells; host or cells: Expi 293 cells (transient expression), membrane fraction
Sequence (Q9UKU6 whole entry): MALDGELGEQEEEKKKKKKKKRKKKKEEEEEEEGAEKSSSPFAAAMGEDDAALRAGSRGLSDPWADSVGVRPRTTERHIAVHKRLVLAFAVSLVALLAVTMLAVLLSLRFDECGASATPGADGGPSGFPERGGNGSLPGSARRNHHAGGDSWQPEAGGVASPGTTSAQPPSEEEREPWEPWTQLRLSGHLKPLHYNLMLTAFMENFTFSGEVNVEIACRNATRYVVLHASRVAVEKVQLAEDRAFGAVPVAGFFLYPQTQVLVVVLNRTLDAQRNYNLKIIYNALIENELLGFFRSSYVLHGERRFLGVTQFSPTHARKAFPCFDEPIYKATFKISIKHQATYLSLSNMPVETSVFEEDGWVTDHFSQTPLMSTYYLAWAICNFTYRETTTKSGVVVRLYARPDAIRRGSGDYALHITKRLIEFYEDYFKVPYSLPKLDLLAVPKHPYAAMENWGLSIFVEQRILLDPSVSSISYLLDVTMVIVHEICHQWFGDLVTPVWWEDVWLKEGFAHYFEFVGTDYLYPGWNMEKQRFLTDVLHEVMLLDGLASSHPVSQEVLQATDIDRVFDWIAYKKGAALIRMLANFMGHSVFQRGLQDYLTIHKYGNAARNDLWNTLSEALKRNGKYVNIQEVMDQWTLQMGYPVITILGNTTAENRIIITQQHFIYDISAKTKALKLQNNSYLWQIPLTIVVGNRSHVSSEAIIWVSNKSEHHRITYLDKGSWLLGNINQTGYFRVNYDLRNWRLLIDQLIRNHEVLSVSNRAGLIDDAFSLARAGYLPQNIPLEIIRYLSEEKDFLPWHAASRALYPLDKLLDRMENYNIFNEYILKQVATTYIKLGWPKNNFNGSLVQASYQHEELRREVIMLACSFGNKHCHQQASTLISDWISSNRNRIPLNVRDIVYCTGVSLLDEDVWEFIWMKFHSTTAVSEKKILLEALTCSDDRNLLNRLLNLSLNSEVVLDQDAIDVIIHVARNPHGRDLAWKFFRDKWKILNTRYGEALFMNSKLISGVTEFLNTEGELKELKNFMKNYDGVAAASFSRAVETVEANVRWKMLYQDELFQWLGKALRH
Assay: TRH-DE inhibition test (RapidFire MS measurement of product Cyclo (His-Pro))
Format: biochemical
Details: membrane fraction of Expi 293 cells expressing human TRH-DE; 10 μM TRH substrate; room temperature, 2 hours; 16-point concentration test
Protocol: The compounds described in “1. […] The enzyme inhibitory activity of each of the compounds was evaluated by measuring the amount of the product Cyclo (His-Pro) of the enzyme reaction using a RapidFire RF 365 HTMS system (manufactured by Agilent Technologies, Inc.) connected to a triple quadrupole mass spectrometer (API 4000, manufactured by SCIEX). […] The IC50 value was calculated from the concentration reactivity test at 16 points.
By convention, pIC50 is the negative base-10 log of a molar concentration.

QUERY: Name the recorded pIC50 of the item C[C@@H]1Cn2nc(F)c(Br)c2C(=O)N1C1CC2(C1)CN(S(=O)(=O)c1ccccc1F)C2 in your answer.
RESULT: 7.68

QUERY: Name the recorded pIC50 of the item C[C@@H]1COc2cc(Cl)ncc2C(=O)N1C1CC2(C1)CN(S(=O)(=O)c1ccccc1F)C2 in your answer.
RESULT: 8.70

QUERY: Name the recorded pIC50 of the item C[C@@H]1COc2cc(N3CC[C@@H](F)C3)ncc2C(=O)N1C1CC2(C1)CN(S(=O)(=O)c1ccccc1F)C2 in your answer.
RESULT: 9.00

QUERY: Name the recorded pIC50 of the item Cc1nc2c(cc1Br)C(=O)N(C1CC3(C1)CN(S(=O)(=O)c1ccccc1F)C3)[C@H](C)CO2 in your answer.
RESULT: 8.22

QUERY: Name the recorded pIC50 of the item C[C@@H]1COc2nc(N(C)C)ncc2C(=O)N1C1CC2(C1)CN(S(=O)(=O)c1ccccc1F)C2 in your answer.
RESULT: 8.52

QUERY: Name the recorded pIC50 of the item C[C@@H]1COc2nc(C(C)(F)F)sc2C(=O)N1C1CC2(C1)CN(S(=O)(=O)c1ccccc1F)C2 in your answer.
RESULT: 7.92

QUERY: Name the recorded pIC50 of the item C[C@@H]1CCn2nc(C3(F)CC3)cc2C(=O)N1C1CC2(C1)CN(S(=O)(=O)c1ccccc1F)C2 in your answer.
RESULT: 7.96
